The measurements presented in this section are drawn from ChEMBL document CHEMBL1124096.

experiment: Protective index (TD50/ED50) for MES test in mice; type: ADME, organism-based; conditions: mouse, in vivo; read-out: PI
Response key: t means selectivity ratio >= 2; f means selectivity ratio < 2.

[
  {
    "MOLECULE": "O=C1Nc2ccccc2C12OCCCO2",
    "DISCRETE LABEL": "f"
  },
  {
    "MOLECULE": "COC1(OC)C(=O)Nc2ccccc21",
    "DISCRETE LABEL": "t"
  },
  {
    "MOLECULE": "O=C1Nc2cc(Cl)ccc2C12OCCO2",
    "DISCRETE LABEL": "f"
  },
  {
    "MOLECULE": "O=C1Nc2ccc(Cl)cc2C12OCCO2",
    "DISCRETE LABEL": "t"
  },
  {
    "MOLECULE": "O=C1Nc2ccccc2C12OCCS2 (stereo unspecified)",
    "DISCRETE LABEL": "f"
  },
  {
    "MOLECULE": "O=C1N(CN2CCCCC2)c2ccccc2C12OCCO2",
    "DISCRETE LABEL": "f"
  },
  {
    "MOLECULE": "O=C1Nc2cccc(Cl)c2C12OCCO2",
    "DISCRETE LABEL": "f"
  },
  {
    "MOLECULE": "CN1C(=O)C2(OCCO2)c2ccccc21",
    "DISCRETE LABEL": "f"
  },
  {
    "MOLECULE": "O=C1Nc2ccc(Br)cc2C12OCCO2",
    "DISCRETE LABEL": "f"
  },
  {
    "MOLECULE": "O=C1Nc2ccccc2C12OCCO2",
    "DISCRETE LABEL": "f"
  }
]

Field: next molecule
Textbook exercise: given the entry `O=C1N(CN2CCOCC2)c2ccccc2C12OCCO2` , state whether its selectivity ratio is greater than or equal to 2.
f
